- TGT: HIV protease (Human immunodeficiency virus type 1 group M subtype B, UniProt P04585)
- Construct: HIV protease was expressed in E. coli and partially purified from soluble extracts; made in house; host or cells: E. coli
- METHOD DESCRIPTION: In vitro inhibition of HIV protease (spectrophotometric assay of N-terminal proline from cleavage of substrate S¹ or S²)
- Format: biochemical
- MEASUREMENT PARAMETERS: substrate S², 0.68 mM, citrate buffer pH 5.5, 37°C; 2nd run, lower protease concentration than in the 1st run; read-out: IC₅₀ Inhibition of HIV protease S² 2nd run
pIC50: −log10 of the molar value.
Label rule, in plain words: pIC50 of 9 and up is Met, under 9 is Not met.

1) CC[C@H](C)[C@H](NC(=O)[C@@H](C[C@H](O)[C@H](CC1CCCCC1)NC(=O)OC(C)(C)C)C(C)C)C(=O)NC1Cc2ccccc2C1 [Compound E] = Not met
2) CC[C@H](C)[C@H](NC(=O)[C@H](C(C)C)[C@@H](O)[C@H](O)[C@H](CC1CCCCC1)NC(=O)OC(C)(C)C)C(=O)NCCN1CCN(C(=O)OCc2ccccc2)CC1 [Compound N] = Not met
3) CC[C@H](C)[C@H](NC(=O)[C@@H](C[C@H](O)[C@H](CC1CCCCC1)NC(=O)OC(C)(C)C)C(C)C)C(=O)N[C@@H](Cc1ccccc1)C(=O)OC [Compound B] = Met
4) CC[C@H](C)[C@H](NC(=O)[C@@H](C[C@H](O)[C@H](CC1CCCCC1)NC(=O)OC(C)(C)C)C(C)C)C(=O)NCCc1ccccn1 [Compound D] = Met
